Biological target: Recombinant human his-tagged IGF R extracellular domain protein (human) (UniProt P08069)
Assay: SPR, Ab captured via anti-huIgG Fc, pH 7.4
Consider the following binders and their measured kon readings.
RECORDED_METRIC: kon (M⁻¹ s⁻¹)

BINDER	UNIT_NAME	NUMERIC_READOUT
VRDN-02052 (antibody, V domains shown) VH: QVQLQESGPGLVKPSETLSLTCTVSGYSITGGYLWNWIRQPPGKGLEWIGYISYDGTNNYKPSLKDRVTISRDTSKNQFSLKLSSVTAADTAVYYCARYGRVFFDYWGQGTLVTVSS VL: DIVMTQSPLSLPVTPGEPASISCRSSQSIVHSNGNTYLQWYLQKPGQSPQLLIYKVSNRLYGVPDRFSGSGSGTDFTLKISRVEAEDVGVYYCFHGSHVPWTFGQGTKVEIK	M⁻¹ s⁻¹	101000
VRDN-02017 (antibody, V domains shown) VH: QVQLQESGPGLVKPSETLSLTCTVSGYSITGGYLWNWIRQPPGKGLEWIGYISYDHTNNYKPSLKDRVTISRDTSKNQFSLKLSSVTAADTAVYYCARYGRVFFDYWGQGTLVTVSS VL: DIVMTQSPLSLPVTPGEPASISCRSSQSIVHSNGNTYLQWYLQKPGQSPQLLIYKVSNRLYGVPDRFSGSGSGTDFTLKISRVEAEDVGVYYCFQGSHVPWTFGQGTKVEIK	M⁻¹ s⁻¹	97000
VRDN-02043 (antibody, V domains shown) VH: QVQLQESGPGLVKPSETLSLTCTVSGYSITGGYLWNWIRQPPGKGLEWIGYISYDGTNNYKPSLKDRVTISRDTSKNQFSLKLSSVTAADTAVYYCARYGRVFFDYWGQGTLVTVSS VL: DIVMTQSPLSLPVTPGEPASISCRSSQSIVHSNGNTYLHWYLQKPGQSPQLLIYKVSNRLYGVPDRFSGSGSGTDFTLKISRVEAEDVGVYYCFQGSHVPWTFGQGTKVEIK	M⁻¹ s⁻¹	83400
VRDN-02065 (antibody, V domains shown) VH: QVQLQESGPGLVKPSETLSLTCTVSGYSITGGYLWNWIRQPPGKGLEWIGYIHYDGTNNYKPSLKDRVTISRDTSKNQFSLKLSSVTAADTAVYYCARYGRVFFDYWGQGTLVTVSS VL: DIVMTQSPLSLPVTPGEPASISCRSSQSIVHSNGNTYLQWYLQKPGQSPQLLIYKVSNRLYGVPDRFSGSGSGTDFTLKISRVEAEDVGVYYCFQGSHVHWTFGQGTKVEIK	M⁻¹ s⁻¹	116000
VRDN-02035 (antibody, V domains shown) VH: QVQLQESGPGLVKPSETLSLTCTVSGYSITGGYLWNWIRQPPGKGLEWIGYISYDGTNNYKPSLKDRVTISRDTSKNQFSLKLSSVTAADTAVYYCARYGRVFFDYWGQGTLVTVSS VL: DIVMTQSPLSLPVTPGEPASISCRSSQSIHHSNGNTYLQWYLQKPGQSPQLLIYKVSNRLYGVPDRFSGSGSGTDFTLKISRVEAEDVGVYYCFQGSHVPWTFGQGTKVEIK	M⁻¹ s⁻¹	97800
VRDN-02070 (antibody, V domains shown) VH: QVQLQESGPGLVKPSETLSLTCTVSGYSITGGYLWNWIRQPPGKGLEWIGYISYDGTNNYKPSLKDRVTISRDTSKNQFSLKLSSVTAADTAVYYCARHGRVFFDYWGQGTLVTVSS VL: DIVMTQSPLSLPVTPGEPASISCRSSQSIVHSNGNTYLQWYLQKPGQSPQLLIYKVSNRLYGVPDRFSGSGSGTDFTLKISRVEAEDVGVYYCFQGSHVPHTFGQGTKVEIK	M⁻¹ s⁻¹	105000
VRDN-02071 (antibody, V domains shown) VH: QVQLQESGPGLVKPSETLSLTCTVSGYSITGGYLWNWIRQPPGKGLEWIGYIHYDGTNNYKPSLKDRVTISRDTSKNQFSLKLSSVTAADTAVYYCARHGRVFFDYWGQGTLVTVSS VL: DIVMTQSPLSLPVTPGEPASISCRSHQSIVHSNGNTYLQWYLQKPGQSPQLLIYKVSNRLYGVPDRFSGSGSGTDFTLKISRVEAEDVGVYYCFHGSHVPWTFGQGTKVEIK	M⁻¹ s⁻¹	105000
VRDN-02063 (antibody, V domains shown) VH: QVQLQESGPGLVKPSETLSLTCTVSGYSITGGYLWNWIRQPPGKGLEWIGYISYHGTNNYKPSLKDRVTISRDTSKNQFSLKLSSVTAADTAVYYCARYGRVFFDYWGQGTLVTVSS VL: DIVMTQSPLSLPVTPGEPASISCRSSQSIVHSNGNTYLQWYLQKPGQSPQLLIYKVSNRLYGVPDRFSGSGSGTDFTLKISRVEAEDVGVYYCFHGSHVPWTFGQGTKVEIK	M⁻¹ s⁻¹	111000
VRDN-02003 (antibody, V domains shown) VH: QVQLQESGPGLVKPSETLSLTCTVSGYHITGGYLWNWIRQPPGKGLEWIGYISYDGTNNYKPSLKDRVTISRDTSKNQFSLKLSSVTAADTAVYYCARYGRVFFDYWGQGTLVTVSS VL: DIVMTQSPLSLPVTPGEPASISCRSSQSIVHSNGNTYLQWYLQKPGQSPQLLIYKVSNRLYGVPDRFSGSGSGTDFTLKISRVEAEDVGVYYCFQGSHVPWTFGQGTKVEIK	M⁻¹ s⁻¹	112000
VRDN-02016 (antibody, V domains shown) VH: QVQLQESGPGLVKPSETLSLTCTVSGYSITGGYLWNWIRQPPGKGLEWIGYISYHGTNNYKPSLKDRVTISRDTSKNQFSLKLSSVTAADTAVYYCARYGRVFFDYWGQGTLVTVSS VL: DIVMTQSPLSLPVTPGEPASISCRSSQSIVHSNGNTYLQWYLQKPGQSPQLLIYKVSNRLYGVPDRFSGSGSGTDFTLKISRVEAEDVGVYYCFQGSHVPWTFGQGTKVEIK	M⁻¹ s⁻¹	98000
